Known exchange rate with Pos of a selection of binders
assayedSystem: T1, HLA-A*01:01 (human, biotinylated heavy chain)
T1 construct: Conditional HLA class I complex (heavy chain + B2M) first held by a UV-labile peptide; the tested peptide is exchanged in after UV cleavage
protocol: UV peptide exchange; HLA class I ELISA
The figure you give is taken to be in %; do not add the unit.

IQYSCMGLM (Synthetic 9-mer) [P50 9-mer IQYSCMGLM (AR W742C)] = 2.3
FPVGAEGTF (Synthetic 9-mer) [P27 9-mer FPVGAEGTF (FAM126B-ORC2 fusion)] = 4.8
STRRAVRRM (Synthetic 9-mer) [P16 9-mer STRRAVRRM (MSMB-NCOA4 fusion)] = 5.5
NSKMALNSL (Synthetic 9-mer) [P35 9-mer NSKMALNSL (TMPRSS2-ERG fusion)] = 2.5
GVLRRLLCR (Synthetic 9-mer) [P37 9-mer GVLRRLLCR (TSTD1-F11R fusion)] = 1.4

Which measured exchange rate with Pos value corresponds to NMVENGCYL (Synthetic 9-mer) [P59 9-mer NMVENGCYL (FOXA1 F254V)] ? 2.2

Same again, this time with FFKRAAEGF (Synthetic 9-mer) [P77 9-mer FFKRAAEGF (AR-V3)] 1.9
